// data source = paper PMC5811392

- targetUnderTest: p53 DBD (Homo sapiens, UniProt P04637 88-312)
- Sequence (P04637 88-312): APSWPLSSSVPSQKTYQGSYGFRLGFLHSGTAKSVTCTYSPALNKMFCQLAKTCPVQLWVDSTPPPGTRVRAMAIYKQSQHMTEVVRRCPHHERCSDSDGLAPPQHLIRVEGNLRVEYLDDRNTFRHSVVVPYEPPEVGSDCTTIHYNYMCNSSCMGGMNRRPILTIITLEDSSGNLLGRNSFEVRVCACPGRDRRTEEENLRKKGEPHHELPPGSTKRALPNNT
- assayNotes: fluorescence anisotropy
measure: pKd
Note: pKd values are expressed as the negative base-10 logarithm of concentration in M.

Kindly indicate its recorded pKd. Item: p21 20-mer DNA, Cy5 (dsDNA) DNA 1: GAACATGTTCGAACATGTTC DNA 2: GAACATGTTCGAACATGTTC
7.35
